molecular target: Plasmepsin 4 (Plasmodium falciparum)
Sequence (Q17SB2 whole entry): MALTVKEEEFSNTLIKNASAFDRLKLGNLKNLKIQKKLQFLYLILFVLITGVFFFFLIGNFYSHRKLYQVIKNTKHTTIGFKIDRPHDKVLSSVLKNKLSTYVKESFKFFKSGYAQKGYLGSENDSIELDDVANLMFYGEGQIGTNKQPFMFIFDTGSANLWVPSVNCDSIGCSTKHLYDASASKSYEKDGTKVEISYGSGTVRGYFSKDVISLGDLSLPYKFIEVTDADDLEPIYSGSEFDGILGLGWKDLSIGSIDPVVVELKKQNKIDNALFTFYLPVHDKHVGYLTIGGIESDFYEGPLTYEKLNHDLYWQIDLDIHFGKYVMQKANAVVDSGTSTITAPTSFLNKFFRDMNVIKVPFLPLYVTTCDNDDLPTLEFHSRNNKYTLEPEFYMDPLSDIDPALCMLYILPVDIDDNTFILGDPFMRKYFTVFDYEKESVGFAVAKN
pIC50: −log10 of the molar value.
Returns yes (1) if the recorded pIC50 is greater than or equal to 7, and no (0) otherwise.

{"columns": ["compound", "systemUnderTest", "category"],
 "data": [
  ["Nc1nc2cc(-c3ccccc3)cc(-c3cccnc3)c2c(=O)n1CC1CCCO1 (racemic)", "Plasmepsin 4 (Plasmodium falciparum)", "no (0)"],
  ["Nc1nc2cc(-c3ccccc3)cc(-c3cccc(C(=O)O)c3)c2c(=O)n1CC1CCCO1 (racemic)", "Plasmepsin 4 (Plasmodium falciparum)", "no (0)"],
  ["CC(C)CC(=O)N[C@H](C(=O)N[C@H](C(=O)N[C@@H](CC(C)C)[C@@H](O)CC(=O)N[C@@H](C)C(=O)N[C@@H](CC(C)C)[C@@H](O)CC(=O)O)C(C)C)C(C)C", "Plasmepsin 4 (Plasmodium falciparum)", "yes (1)"],
  ["CCCCCc1ccc(-c2cc(-c3ccc(C(=O)O)cc3)c3c(=O)n(CC4CCCO4)c(N)nc3c2)cc1 (racemic)", "Plasmepsin 4 (Plasmodium falciparum)", "yes (1)"],
  ["Nc1cccc(-c2cc(-c3ccccc3)cc3nc(N)n(CC4CCCO4)c(=O)c23)c1 (racemic)", "Plasmepsin 4 (Plasmodium falciparum)", "no (0)"],
  ["CCCCCc1ccc(-c2cc(CCC(=O)O)c3c(=O)n(CC4CCCO4)c(N)nc3c2)cc1 (racemic)", "Plasmepsin 4 (Plasmodium falciparum)", "yes (1)"]
]}

====

molecular target: Plasmepsin I (Plasmodium falciparum) (UniProt P39898)
pIC50: −log10 of the molar value.
property: pIC50

{"columns": ["compound", "systemUnderTest", "property", "numericReadout"],
 "data": [
  ["CC(C)CC(=O)N[C@H](C(=O)N[C@H](C(=O)N[C@@H](CC(C)C)[C@@H](O)CC(=O)N[C@@H](C)C(=O)N[C@@H](CC(C)C)[C@@H](O)CC(=O)O)C(C)C)C(C)C [PEPSTATIN]", "Plasmepsin I (Plasmodium falciparum) (UniProt P39898)", "pIC50", 9.38]
]}

====

Entries below carry reported pIC50 on Plasmepsin I (Plasmodium falciparum).
Sequence (P39898 whole entry): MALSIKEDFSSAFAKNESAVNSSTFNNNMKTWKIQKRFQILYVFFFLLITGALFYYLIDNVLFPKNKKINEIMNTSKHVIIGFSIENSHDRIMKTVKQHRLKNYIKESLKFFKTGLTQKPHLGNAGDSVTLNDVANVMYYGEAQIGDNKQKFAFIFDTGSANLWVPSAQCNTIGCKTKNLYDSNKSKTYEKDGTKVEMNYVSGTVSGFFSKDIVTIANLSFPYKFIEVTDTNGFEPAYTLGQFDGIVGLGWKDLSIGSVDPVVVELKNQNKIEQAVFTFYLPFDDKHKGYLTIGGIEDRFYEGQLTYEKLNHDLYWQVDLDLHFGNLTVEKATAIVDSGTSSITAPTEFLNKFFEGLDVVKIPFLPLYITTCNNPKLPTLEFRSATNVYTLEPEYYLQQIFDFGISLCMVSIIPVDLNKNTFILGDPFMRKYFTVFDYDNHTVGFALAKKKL
pIC50: −log10 of the molar value.

{"columns": ["compound", "pIC50"],
 "data": [
  ["CCCCCCCCc1cc(CCC(=O)O)c2c(=O)n(CC3CCCO3)c(N)nc2c1 (racemic)", 7.70],
  ["Nc1nc2cc(-c3ccccc3)cc(-c3cccc(C(=O)O)c3)c2c(=O)n1CC1CCCO1 (racemic)", 6.00],
  ["CC(C)CC(=O)N[C@H](C(=O)N[C@H](C(=O)N[C@@H](CC(C)C)[C@@H](O)CC(=O)N[C@@H](C)C(=O)N[C@@H](CC(C)C)[C@@H](O)CC(=O)O)C(C)C)C(C)C [PEPSTATIN]", 9.38],
  ["CCCCCc1ccc(-c2cc(CCC(=O)O)c3c(=O)n(CC4CCCO4)c(N)nc3c2)cc1 (racemic)", 7.30],
  ["CCCCCc1ccc(-c2ccc3c(=O)n(CC4CCCO4)c(N)nc3c2)cc1 (racemic)", 6.15],
  ["Nc1nc2cc(-c3ccccc3)cc(-c3ccc(C(=O)O)cc3)c2c(=O)n1CC1CCCO1 (racemic)", 5.46]
]}
